assay: Cytotoxicity against human KPL-4 cells measured after 8 days; format: functional, cell-based; conditions: KPL4, 192 h
Assignment: determine reported IC50 for the given compounds.
Give bare numbers, in µM.

| smiles | measurement_units | IC50 |
| --- | --- | --- |
| C/C=C/Cn1cc(-c2cc(OC)c(C(=O)N3CCOCC3)cc2OC)c2cc(C)[nH]c2c1=O | µM | 2 |
| C/C=C/Cn1cc(-c2ccc(C(=O)N3CCOCC3)cc2)c2cc[nH]c2c1=O | µM | 20 |

# ---- query compound ----
Query: Name the recorded IC50 for C/C=C/Cn1cc(-c2ccc(C(C)(C)O)cc2OC)c2cc[nH]c2c1=O .
Response: 20

Entry source: ChEMBL document CHEMBL5260810
